target of assay: Adrenergic β2 (H292 cells) (Homo sapiens, UniProt P07550)
Construct: endogenous in cells; host or cells: H292 cells
Sequence (P07550 whole entry): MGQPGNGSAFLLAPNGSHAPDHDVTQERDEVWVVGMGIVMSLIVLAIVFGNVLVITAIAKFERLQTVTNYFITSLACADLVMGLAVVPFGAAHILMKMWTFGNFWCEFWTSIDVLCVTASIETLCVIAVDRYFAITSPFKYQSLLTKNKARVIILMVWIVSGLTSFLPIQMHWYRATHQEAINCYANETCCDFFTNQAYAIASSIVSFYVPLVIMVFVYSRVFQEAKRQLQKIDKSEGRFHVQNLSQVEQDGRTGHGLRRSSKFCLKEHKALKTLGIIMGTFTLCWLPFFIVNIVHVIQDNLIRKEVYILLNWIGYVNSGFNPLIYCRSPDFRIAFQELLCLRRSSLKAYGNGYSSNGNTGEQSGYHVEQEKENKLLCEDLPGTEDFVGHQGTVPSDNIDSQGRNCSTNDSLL
assay text: Adrenergic β2 Mediated cAMP Production, single concentration 1 μM
Format: cell-based
stated conditions: NCI-H292, 1 μM compound, percentage of the maximum response generated by 1E-07M formoterol, read-out: β2 (% effect at 1 μM)
measured metric: activation at 1 µM (%)
Please state the figure in %; there is no need to write the unit.

Example cases with answers are listed next.
O=C(c1cnc(-c2ccccc2)[nH]1)N1CCOC2(CCN(Cc3cc(F)cc(CCNC[C@H](O)c4ccc(O)c5[nH]c(=O)sc45)c3)CC2)C1 | 94
Cc1nc(C(=O)N2CCOC3(CCN(CCOc4ccc(CNC[C@H](O)c5ccc(O)c6[nH]c(=O)sc56)cc4)CC3)C2)c(C)s1 | 43
O=C(CCc1c[nH]c2ccccc12)N1CCOC2(CCN(Cc3cc(F)cc(CCNC[C@H](O)c4ccc(O)c5[nH]c(=O)sc45)c3)CC2)C1 | 112
Cc1ccoc1C(=O)N1CCOC2(CCN(CCCCCCCCCNC[C@H](O)c3ccc(O)c4[nH]c(=O)sc34)CC2)C1 | 91

Asked: Please look up its activation at 1 µM: Cc1nc(CC(=O)N2CCOC3(CCN(Cc4cc(F)cc(CCNC[C@H](O)c5ccc(O)c6[nH]c(=O)sc56)c4)CC3)C2)cs1
Given back: 95

Asked: What do you have for O=C(c1csc(C2CCCC2)n1)N1CCOC2(CCN(CCOc3ccc(CNC[C@H](O)c4ccc(O)c5[nH]c(=O)sc45)cc3)CC2)C1 ?
Given back: 69

====

target of assay: Adrenergic β2 (H292 cells) (Homo sapiens, UniProt P07550)
Construct: endogenous in cells; host or cells: H292 cells
assay text: Assay for Adrenergic β2 Mediated cAMP Production (concentration response, AlphaScreen cAMP detection)
Format: cell-based
stated conditions: fraction relative to the maximum activity determined for formoterol
measured metric: β2 Intrinsic activity

In the examples that follow, each entry is paired with its recorded β2 Intrinsic activity.
COC(=O)c1ccc(C(=O)N2CCOC3(CCN(Cc4cccc(CCNC[C@H](O)c5ccc(O)c6[nH]c(=O)ccc56)c4)CC3)C2)s1 [Example 31, ditrifluoroacetate] | 0.9
O=C(c1csc(-c2ccccc2)n1)N1CCOC2(CCN(CCOc3ccc(CNC[C@H](O)c4ccc(O)c5[nH]c(=O)sc45)cc3)CC2)C1 [Example 112, ditrifluoroacetate] | 0.9

Then this compound:
Asked: If you can, please state the reported β2 Intrinsic activity value of CCc1cc(C(=O)N2CCOC3(CCN(Cc4cccc(CCNC[C@H](O)c5ccc(O)c6[nH]c(=O)sc56)c4F)CC3)C2)cs1 [Example 91, ditrifluoroacetate] .
Given back: 0.7

====

target of assay: human muscarinic acetylcholine M3 receptor (M3-ACh) (Homo sapiens)
Construct: expressed in transfected cells; host or cells: CHO-K1 (Chinese Hamster Ovary) cell membranes
Sequence (P20309 whole entry): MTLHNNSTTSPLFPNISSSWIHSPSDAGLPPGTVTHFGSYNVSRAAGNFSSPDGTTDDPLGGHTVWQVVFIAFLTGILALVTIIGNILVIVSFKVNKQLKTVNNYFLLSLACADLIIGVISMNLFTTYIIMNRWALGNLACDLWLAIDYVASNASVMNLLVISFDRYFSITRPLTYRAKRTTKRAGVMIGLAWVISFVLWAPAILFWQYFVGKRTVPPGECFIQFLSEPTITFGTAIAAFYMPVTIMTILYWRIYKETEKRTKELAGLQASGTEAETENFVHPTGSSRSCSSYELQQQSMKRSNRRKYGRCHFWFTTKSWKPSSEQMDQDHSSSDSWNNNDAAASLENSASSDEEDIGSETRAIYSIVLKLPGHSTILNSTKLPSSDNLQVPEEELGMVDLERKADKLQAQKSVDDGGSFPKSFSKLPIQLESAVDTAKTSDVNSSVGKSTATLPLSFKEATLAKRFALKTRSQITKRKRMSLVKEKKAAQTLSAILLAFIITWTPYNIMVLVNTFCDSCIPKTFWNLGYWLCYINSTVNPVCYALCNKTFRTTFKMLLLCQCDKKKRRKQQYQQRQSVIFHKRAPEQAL
assay text: Muscarinic 3 Receptor Binding Assay, % inhibition specific binding at 1 μM
stated conditions: 1 μM compound, % inhibition specific [3H]-NMS binding
measured metric: inhibition at 1 µM (%)
All answers are understood in %, so give the number only.

Asked: Any idea what inhibition at 1 µM came out for Cn1cccc1C(=O)N1CCOC2(CCN(CCCCCCCCCNC[C@H](O)c3ccc(O)c4[nH]c(=O)sc34)CC2)C1 [Example 184] on human muscarinic acetylcholine M3 receptor (M3-ACh) (Homo sapiens)?
Given back: 96

Asked: Consider next the compound O=C(c1cnc2ccccc2c1)N1CCOC2(CCN(Cc3cc(F)cc(CCNC[C@H](O)c4ccc(O)c5[nH]c(=O)sc45)c3)CC2)C1 [Example 172] in the same way.
Given back: 19

Asked: Entry to check: Cc1nc(CC(=O)N2CCOC3(CCN(CCCCCCCCCNC[C@H](O)c4ccc(O)c5[nH]c(=O)sc45)CC3)C2)cs1 [Example 210]
Given back: 95

Asked: Same thing, different compound: O=C(c1csc(C2CCCC2)n1)N1CCOC2(CCN(CCOc3ccc(CNC[C@H](O)c4ccc(O)c5[nH]c(=O)sc45)cc3)CC2)C1 [Example 262]
Given back: 82

Asked: Can you handle Cc1nc2ccccn2c1C(=O)N1CCOC2(CCN(Cc3cc(F)cc(CCNC[C@H](O)c4ccc(O)c5[nH]c(=O)sc45)c3)CC2)C1 [Example 152] next?
Given back: 13

Asked: Next compound up: O=C(c1ccc(Cl)s1)N1CCOC2(CCN(Cc3cc(F)cc(CCNC[C@H](O)c4ccc(O)c5[nH]c(=O)sc45)c3)CC2)C1 [Example 124]
Given back: 97

Asked: Can you handle Cc1cccc(C(=O)N2CCOC3(CCN(CCCCCCCCCNC[C@H](O)c4ccc(O)c5[nH]c(=O)sc45)CC3)C2)n1 [Example 196] next?
Given back: 95

====

target of assay: Adrenergic β2 (H292 cells) (Homo sapiens)
Construct: endogenous in cells; host or cells: H292 cells
assay text: Adrenergic β2 Mediated cAMP Production, single concentration 1 μM
Format: cell-based
stated conditions: NCI-H292, 1 μM compound, percentage of the maximum response generated by 1E-07M formoterol, read-out: β2 (% effect at 1 μM)
As shown below, each of these molecules has a reported activation at 1 µM value.
Answer with a number only, understood to be in %.

Cc1ccc2nc(C)c(C(=O)N3CCOC4(CCN(Cc5cc(F)cc(CCNC[C@H](O)c6ccc(O)c7[nH]c(=O)sc67)c5)CC4)C3)n2c1 | 108
Cc1nc(C)c(CC(=O)N2CCOC3(CCN(CCCCCCCCCNC[C@H](O)c4ccc(O)c5[nH]c(=O)sc45)CC3)C2)s1 | 91
Cc1occc1C(=O)N1CCOC2(CCN(CCCCCCCCCNC[C@H](O)c3ccc(O)c4[nH]c(=O)sc34)CC2)C1 | 78
O=C(Cc1ccsc1)N1CCOC2(CCN(CCCCCCCCCNC[C@H](O)c3ccc(O)c4[nH]c(=O)sc34)CC2)C1 | 88
O=C(c1csc(C2CCC2)n1)N1CCOC2(CCN(CCCCCCCCCNC[C@H](O)c3ccc(O)c4[nH]c(=O)sc34)CC2)C1 | 109

Could you now look at the following molecule, please?
Asked: Checklist item: activation at 1 µM tested on Adrenergic β2 (H292 cells) (Homo sapiens), entry Cc1ccsc1C(=O)N1CCOC2(CCN(CCOc3ccc(CNC[C@H](O)c4ccc(O)c5[nH]c(=O)sc45)cc3)CC2)C1 , value?
Given back: 83

====

# activation at 1 µM annotations
target of assay: Adrenergic β2 (H292 cells) (Homo sapiens, UniProt P07550)
Construct: endogenous in cells; host or cells: H292 cells
assay text: Adrenergic β2 Mediated cAMP Production, single concentration 1 μM
Assay type: cell-based
stated conditions: NCI-H292, 1 μM compound, percentage of the maximum response generated by 1E-07M formoterol, read-out: β2 (% effect at 1 μM)
Provide only the numeric value, understood in %.

O=C(CCOc1ccccc1)N1CCOC2(CCN(CCOc3ccc(CNC[C@H](O)c4ccc(O)c5[nH]c(=O)sc45)cc3)CC2)C1 [Example 247] | 75

Asked: Reported activation at 1 µM for O=C(c1ccc2cccnc2c1)N1CCOC2(CCN(Cc3cc(F)cc(CCNC[C@H](O)c4ccc(O)c5[nH]c(=O)sc45)c3)CC2)C1 [Example 178] : what is it?
Given back: 94

Asked: CCCc1nc(C(=O)N2CCOC3(CCN(CCCCCCCCCNC[C@H](O)c4ccc(O)c5[nH]c(=O)sc45)CC3)C2)cs1 [Example 219] , same question.
Given back: 92

Asked: Follow-up entry: Cc1nc2cc(C(=O)N3CCOC4(CCN(CCOc5ccc(CNC[C@H](O)c6ccc(O)c7[nH]c(=O)sc67)cc5)CC4)C3)ccc2s1 [Example 256]
Given back: 76

Asked: Then O=C(c1ccc2[nH]ccc2c1)N1CCOC2(CCN(Cc3cc(F)cc(CCNC[C@H](O)c4ccc(O)c5[nH]c(=O)sc45)c3)CC2)C1 [Example 138] ?
Given back: 92

Asked: Would you kindly repeat that for O=C(c1cc2cc(Cl)ccc2o1)N1CCOC2(CCN(Cc3cc(F)cc(CCNC[C@H](O)c4ccc(O)c5[nH]c(=O)sc45)c3)CC2)C1 [Example 182] ?
Given back: 88

====

target of assay: Adrenergic β2 (H292 cells) (Homo sapiens, UniProt P07550)
Construct: endogenous in cells; host or cells: H292 cells
assay text: Assay for Adrenergic β2 Mediated cAMP Production (concentration response, AlphaScreen cAMP detection)
Format: cell-based
stated conditions: fraction relative to the maximum activity determined for formoterol
This listing pairs compounds with measured β2 Intrinsic activity.
Write the value as a bare number.

Worked cases, answers included:
CC(C)c1nc(C(=O)N2CCOC3(CCN(Cc4cccc(CCNC[C@H](O)c5ccc(O)c6[nH]c(=O)sc56)c4)CC3)C2)cs1 | 0.9
CCCc1nc(C(=O)N2CCOC3(CCN(Cc4cccc(CCNC[C@H](O)c5ccc(O)c6[nH]c(=O)sc56)c4)CC3)C2)cs1 [Example 87, ditrifluoroacetate] | 0.9
Cc1ccc(C(=O)N2CCOC3(CCN(Cc4cccc(CCNC[C@H](O)c5ccc(O)c6[nH]c(=O)ccc56)c4)CC3)C2)s1 | 0.9
Cc1cc(C(=O)N2CCOC3(CCN(CCCCCCCCCNC[C@H](O)c4ccc(O)c5[nH]c(=O)sc45)CC3)C2)c(C)s1 | 0.9
CC(C)c1nc(C(=O)N2CCOC3(CCN(Cc4cccc(CCNC[C@H](O)c5ccc(O)c6[nH]c(=O)sc56)c4F)CC3)C2)cs1 [Example 48, ditrifluoroacetate] | 0.9
O=C(c1csc(C2CCC2)n1)N1CCOC2(CCN(CCCCCCCCCNC[C@H](O)c3ccc(O)c4[nH]c(=O)sc34)CC2)C1 | 0.8

Asked: For the compound CC(C)c1csc(C(=O)N2CCOC3(CCN(Cc4cccc(CCNC[C@H](O)c5ccc(O)c6[nH]c(=O)ccc56)c4)CC3)C2)n1 [Example 76, ditrifluoroacetate] , what β2 Intrinsic activity is on record?
Given back: 0.9

Asked: Item: Cc1nc(C(=O)N2CCOC3(CCN(Cc4cccc(CCNC[C@H](O)c5ccc(O)c6[nH]c(=O)sc56)c4)CC3)CC2)cs1 [Example 89, ditrifluoroacetate]
Given back: 1

Asked: Repeat with O=C(c1ccc(Cl)s1)N1CCOC2(CCN(CCCCCCCCCNC[C@H](O)c3ccc(O)c4[nH]c(=O)sc34)CC2)C1
Given back: 0.9
